- PROTOCOL NOTES: in vivo
- CONDITIONS: mouse, ip, mice, intraperitoneal injection
ENDPOINT: LD50

COMPOUND: CCC1(O)CC(OC2CC(N(C)C)C(OC3CC(O)C(OC4CCC(O)C(C)O4)C(C)O3)C(C)O2)c2c(cc3c(c2O)C(=O)c2c(O)ccc(O)c2C3=O)C1C(=O)OC (centres unmarked)
ENDPOINT: LD50
RESULT: 7.5 to 10 mg/kg

Then there is this compound:
Ask: So what does the record say about LD50 for CCC1(O)CC(OC2CC(N(C)C)C(OC3CCC(OC4CCC(O)C(C)O4)C(C)O3)C(C)O2)c2c(cc3c(c2O)C(=O)c2c(O)ccc(O)c2C3=O)C1C(=O)OC (centres unmarked) ?
Reply: 10 to 12.5 mg/kg

Cited source for all entries: patent US4127714A
